Measured values drawn from patent US9024055B2 for this set.

test: Solubility via modified protocol with water bath equilibration (Example 17B), HPLC; format: physicochemical; conditions: pH 8 buffer, 19 °C, pH 8, aqueous buffer, thermodynamic from solid
MEASURED_ATTRIBUTE: solubility at 40 min (mg/mL)
Quick reminder: number only, in mg/mL, skip the unit.

Task item: So what does the record say about solubility at 40 min for CC(=O)Nc1ccc(OC(=O)SCCS(=O)(=O)[O-])cc1.[Na+] ?
Reply: 198

###

test: Solubility in phosphate-buffered saline (pH 7.2) at room temperature (Example 18); settings: pH 7.2, aqueous buffer
Assignment: determine reported solubility for the given molecules.
Respond with the figure and its unit, in that order.

Task item: So what does the record say about solubility for CC(=O)Nc1ccc(OC(=O)NCCS(=O)(=O)[O-])cc1.[Na+] [Test Article C, reference compound] ?
Reply: 492 mg/mL

Task item: So what does the record say about solubility for CC(=O)Nc1ccc(OC(=O)NCCS(=O)[O-])cc1.[Na+] ?
Reply: 424 mg/mL
